Data origin, for the record: ChEMBL document CHEMBL3779833

PROTOCOL_DESCRIPTION: Cytotoxicity against human HCC2998 cells after 48 hrs by sulforhodamine B assay
Type: functional, cell-based
CONDITION_DESCRIPTION: HCC 2998, 48 h
PROPERTY: IC50 (nM)
# value in nM; strip the unit string

Could you tell me which IC50 is on file for CC1=C(CN(O)C(N)=O)C2=C(C)C3(CC3)[C@@](C)(O)C(=O)C2=C1 ? 12.6

Could you tell me which IC50 is on file for CC1=C(CO)C2=C(C)C3(CC3)[C@@](C)(O)C(=O)C2=C1 ? 158

----------
PROTOCOL_DESCRIPTION: Cytotoxicity against human OVCAR8 cells after 48 hrs by sulforhodamine B assay
Assay type: functional, cell-based
CONDITION_DESCRIPTION: OVCAR-8, 48 h
PROPERTY: IC50 (µM)
# value in µM; strip the unit string

Could you tell me which IC50 is on file for CC1=C(CO)C2=C(C)C3(CC3)[C@@](C)(O)C(=O)C2=C1 ? 0.2

Could you tell me which IC50 is on file for CC1=C(CN(O)C(N)=O)C2=C(C)C3(CC3)[C@@](C)(O)C(=O)C2=C1 ? 0.316

----------
Please respond with reported IC50 for every item in the list.
Tested on: U-251
PROTOCOL_DESCRIPTION: Cytotoxicity against human U251 cells after 48 hrs by sulforhodamine B assay
Format: functional, cell-based
CONDITION_DESCRIPTION: U-251, 48 h
Record the result as number plus unit.

Could you tell me which IC50 is on file for CC1=C(CO)C2=C(C)C3(CC3)[C@@](C)(O)C(=O)C2=C1 ? 316 nM

Could you tell me which IC50 is on file for CC1=C(CN(O)C(N)=O)C2=C(C)C3(CC3)[C@@](C)(O)C(=O)C2=C1 ? 126 nM

----------
PROTOCOL_DESCRIPTION: Cytotoxicity against human OVCAR3 cells after 48 hrs by sulforhodamine B assay
Format: functional, cell-based
CONDITION_DESCRIPTION: OVCAR-3, 48 h
PROPERTY: IC50 (nM)
# value in nM; strip the unit string

Could you tell me which IC50 is on file for CC1=C(CO)C2=C(C)C3(CC3)[C@@](C)(O)C(=O)C2=C1 ? 251

Could you tell me which IC50 is on file for CC1=C(CN(O)C(N)=O)C2=C(C)C3(CC3)[C@@](C)(O)C(=O)C2=C1 ? 50.1

----------
PROTOCOL_DESCRIPTION: Cytotoxicity against human HCT116 cells after 48 hrs by sulforhodamine B assay
Assay type: functional, cell-based
CONDITION_DESCRIPTION: HCT-116, 48 h
Please respond with reported IC50 for every item in the list.
Record the result as number plus unit.

Could you tell me which IC50 is on file for CC1=C(CN(O)C(N)=O)C2=C(C)C3(CC3)[C@@](C)(O)C(=O)C2=C1 ? 158 nM

Could you tell me which IC50 is on file for CC1=C(CO)C2=C(C)C3(CC3)[C@@](C)(O)C(=O)C2=C1 ? 200 nM

----------
PROTOCOL_DESCRIPTION: Cytotoxicity against human HOP62 cells after 48 hrs by sulforhodamine B assay
Type: functional, cell-based
CONDITION_DESCRIPTION: HOP-62, 48 h
PROPERTY: IC50 (nM)
# value in nM; strip the unit string

Could you tell me which IC50 is on file for CC1=C(CN(O)C(N)=O)C2=C(C)C3(CC3)[C@@](C)(O)C(=O)C2=C1 ? 25.1

Could you tell me which IC50 is on file for CC1=C(CO)C2=C(C)C3(CC3)[C@@](C)(O)C(=O)C2=C1 ? 158

----------
PROTOCOL_DESCRIPTION: Cytotoxicity against human IGROV1 cells after 48 hrs by sulforhodamine B assay
Assay type: functional, cell-based
CONDITION_DESCRIPTION: IGROV-1, 48 h
PROPERTY: IC50 (nM)
# value in nM; strip the unit string

Could you tell me which IC50 is on file for CC1=C(CO)C2=C(C)C3(CC3)[C@@](C)(O)C(=O)C2=C1 ? 158

Could you tell me which IC50 is on file for CC1=C(CN(O)C(N)=O)C2=C(C)C3(CC3)[C@@](C)(O)C(=O)C2=C1 ? 25.1

----------
Please respond with reported pIC50 for every item in the list.
PROTOCOL_DESCRIPTION: Cytotoxicity against human LOXIMVI cells after 48 hrs by sulforhodamine B assay
Format: functional, cell-based
CONDITION_DESCRIPTION: LOX IMVI
API: returns pIC50 as number; meaning -log10 of concentration in mol/L.

Could you tell me which pIC50 is on file for CC1=C(CO)C2=C(C)C3(CC3)[C@@](C)(O)C(=O)C2=C1 ? 6.20

Could you tell me which pIC50 is on file for CC1=C(CN(O)C(N)=O)C2=C(C)C3(CC3)[C@@](C)(O)C(=O)C2=C1 ? 6.50

----------
Test system: SK-MEL-5
PROTOCOL_DESCRIPTION: Cytotoxicity against human SK-MEL-5 cells after 48 hrs by sulforhodamine B assay
Type: functional, cell-based
CONDITION_DESCRIPTION: SK-MEL-5, 48 h
PROPERTY: IC50 (µM)
# value in µM; strip the unit string

Could you tell me which IC50 is on file for CC1=C(CO)C2=C(C)C3(CC3)[C@@](C)(O)C(=O)C2=C1 ? 0.158

Could you tell me which IC50 is on file for CC1=C(CN(O)C(N)=O)C2=C(C)C3(CC3)[C@@](C)(O)C(=O)C2=C1 ? 0.0631

----------
Tested on: HT-29
PROTOCOL_DESCRIPTION: Cytotoxicity against human HT-29 cells after 48 hrs by sulforhodamine B assay
Type: functional, cell-based
CONDITION_DESCRIPTION: HT-29, 48 h
Please respond with reported IC50 for every item in the list.
# value in nM; strip the unit string

Could you tell me which IC50 is on file for CC1=C(CO)C2=C(C)C3(CC3)[C@@](C)(O)C(=O)C2=C1 [IROFULVEN] ? 251

Could you tell me which IC50 is on file for CC1=C(CN(O)C(N)=O)C2=C(C)C3(CC3)[C@@](C)(O)C(=O)C2=C1 [LP-184] ? 126
